The entries below are paired with their reported Ki.
study.target: GST-Bcl-XL (Homo sapiens, UniProt Q07817)
Sequence (Q07817 whole entry): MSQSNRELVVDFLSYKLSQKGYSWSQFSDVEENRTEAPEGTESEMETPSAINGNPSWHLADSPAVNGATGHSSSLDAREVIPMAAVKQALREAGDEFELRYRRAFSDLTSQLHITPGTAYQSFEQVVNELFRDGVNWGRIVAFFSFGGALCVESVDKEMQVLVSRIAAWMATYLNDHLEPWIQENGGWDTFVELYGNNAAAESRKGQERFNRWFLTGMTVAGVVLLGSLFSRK
protocol.description: TR-FRET binding assay, GST-Bcl-XL with F-Bak peptide probe
conditions: TR-FRET Binding Affinity, GST-Bcl-XL, F-Bak peptide probe
Could you kindly put the unit after your number?

Known results for compounds:
# compound, study.target, recorded.endpoint, measured
records = [
    ("CC1(C)CCC(CN2CCN(c3ccc(C(=O)NS(=O)(=O)c4ccc(NC5CCN(C6CCOCC6)CC5)c([N+](=O)[O-])c4)c(Oc4cccc5[nH]ncc45)c3)CC2)=C(c2ccc(Cl)cc2)C1", "GST-Bcl-XL (Homo sapiens, UniProt Q07817)", "Ki", "0.00162 µM"),
    ("CC1(C)CCC(CN2CCN(c3ccc(C(=O)NS(=O)(=O)c4ccc(NC5CCS(=O)(=O)C5)c([N+](=O)[O-])c4)c(Oc4ccc5[nH]ccc5c4)c3)CC2)=C(c2ccc(Cl)cc2)C1 (stereo not drawn)", "GST-Bcl-XL (Homo sapiens, UniProt Q07817)", "Ki", "0.381 µM"),
]

We now examine a further compound.
Give GST-Bcl-XL (Homo sapiens, UniProt Q07817) Ki for CN(C)CCOc1cccc(-c2ccc(Cl)cc2)c1CN1CCN(c2ccc(C(=O)NS(=O)(=O)c3ccc(NCC4CCOCC4)c([N+](=O)[O-])c3)c(Oc3ccccc3)c2)CC1 0.0121 µM
